Biological target: AgOrco (Anopheles gambiae)
Construct: Orco homomer, stoichiometry unknown
Sequence (Q7QCC7 whole entry): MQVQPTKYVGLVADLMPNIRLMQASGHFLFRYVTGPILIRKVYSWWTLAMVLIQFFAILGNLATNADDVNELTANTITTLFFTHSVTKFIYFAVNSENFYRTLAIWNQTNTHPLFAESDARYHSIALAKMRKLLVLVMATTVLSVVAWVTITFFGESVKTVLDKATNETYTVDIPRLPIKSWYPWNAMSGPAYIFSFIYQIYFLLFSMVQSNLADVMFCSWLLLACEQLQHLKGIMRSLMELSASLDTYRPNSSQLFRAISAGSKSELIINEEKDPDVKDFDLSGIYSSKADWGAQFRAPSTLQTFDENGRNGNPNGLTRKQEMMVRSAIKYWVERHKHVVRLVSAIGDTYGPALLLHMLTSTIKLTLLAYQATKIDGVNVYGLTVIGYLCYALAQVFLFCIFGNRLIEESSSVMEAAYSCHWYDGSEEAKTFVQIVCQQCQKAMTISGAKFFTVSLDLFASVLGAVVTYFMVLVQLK
Test: Ca++ imaging concentration-response in HEK cells
reportedProperty: EC50
Number first, unit second.

Could you tell me which EC50 is on file for CCc1ccc(NC(=O)CSc2nnc(-c3cccnc3)n2CC)cc1 ?
49 µM

---

Biological target: AgOrco + AgOr8 (Anopheles gambiae, UniProt Q7PUT5+Q7QCC7)
Construct: heteromer of unknown stoichiometry; VUAA1 acts on Orco, odorant on Or8, ruthenium red at the pore
Sequence (Q7PUT5 1-399, one chain of several): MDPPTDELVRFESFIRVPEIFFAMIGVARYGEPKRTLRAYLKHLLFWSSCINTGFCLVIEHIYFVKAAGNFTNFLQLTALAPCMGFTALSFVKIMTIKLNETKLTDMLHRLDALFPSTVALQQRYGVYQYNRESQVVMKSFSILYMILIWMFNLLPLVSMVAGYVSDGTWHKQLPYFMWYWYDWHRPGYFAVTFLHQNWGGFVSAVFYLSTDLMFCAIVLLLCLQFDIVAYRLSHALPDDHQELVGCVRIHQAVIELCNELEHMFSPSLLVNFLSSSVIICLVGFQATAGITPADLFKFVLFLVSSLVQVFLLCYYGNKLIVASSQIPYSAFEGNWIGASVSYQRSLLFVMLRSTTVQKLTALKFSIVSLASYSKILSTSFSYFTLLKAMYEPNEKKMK
Assay: Ca++ imaging concentration-response in HEK cells
reportedProperty: pEC50
When answering, recall that pEC50 equals minus log10 of the concentration in mol/L, and write that number alone.

Which pEC50 is reported for this molecule? CCc1ccc(NC(=O)CSc2nnc(-c3cccnc3)n2CC)cc1 [VUAA1]
4.88

---

Molecular target: AgOrco + AgOr10 (Anopheles gambiae, UniProt B5U0U7+Q7QCC7)
Construct: heteromer of unknown stoichiometry; VUAA1 acts on Orco, odorant on Or10, ruthenium red at the pore
Sequence (B5U0U7 1-375, one chain of several): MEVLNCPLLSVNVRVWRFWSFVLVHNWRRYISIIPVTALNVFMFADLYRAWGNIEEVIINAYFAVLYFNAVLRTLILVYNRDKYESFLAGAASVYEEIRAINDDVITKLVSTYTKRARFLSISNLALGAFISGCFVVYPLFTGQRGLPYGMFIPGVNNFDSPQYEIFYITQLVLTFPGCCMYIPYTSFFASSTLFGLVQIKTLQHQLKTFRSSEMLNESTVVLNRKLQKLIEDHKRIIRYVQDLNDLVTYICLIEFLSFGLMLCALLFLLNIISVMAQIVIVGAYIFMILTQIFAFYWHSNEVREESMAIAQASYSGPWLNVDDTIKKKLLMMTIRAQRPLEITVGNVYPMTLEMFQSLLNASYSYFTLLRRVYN
Assay: Ca++ imaging concentration-response in HEK cells
reportedProperty: pEC50
Hey, just a heads up that pEC50 is the negative log base 10 of the concentration in molar.

May I ask what pEC50 has been recorded for CCc1ccc(NC(=O)CSc2nnc(-c3cccnc3)n2CC)cc1 [VUAA1] ?
4.91
